Cited source for all entries: patent US20080255206A1

assay.explanation: Pharmacokinetics, single dose administration
Format: in vivo
condition.set: plasma, po; single dose 100 mg/kg, microsuspension in oil; read-out: Plasma level one hour after oral administration
value.type: concentration at 1 h (ng/mL)
Write it as a number; the unit ng/mL goes unstated.

Q: What value of concentration at 1 h has been reported for the following compound? "CCCCOc1c(\C(C)=C/C=C/C(C)=C/C(=O)O)cc(C(C)(C)C)cc1C(C)(C)C"
Ans: 2760

----------
assay.explanation: Pharmacokinetics, daily oral gavage for 14 days in mice
condition.set: mouse, in vivo, 30 mg/kg, oral
value.type: AUC
Answer with the value and then the unit.

Q: Record request: AUC value, item "CCCCOc1c(\C(C)=C/C=C/C(C)=C/C(=O)O)cc(C(C)(C)C)cc1C(C)(C)C"
Ans: 13200 ng·h/mL

----------
tested.target: PPARγ/RXRα Heterodimer (Homo sapiens, UniProt P19793)
Construct: co-transfected with plasmids expressing the full length RXR heteropartner receptor
Sequence (P19793 1-462): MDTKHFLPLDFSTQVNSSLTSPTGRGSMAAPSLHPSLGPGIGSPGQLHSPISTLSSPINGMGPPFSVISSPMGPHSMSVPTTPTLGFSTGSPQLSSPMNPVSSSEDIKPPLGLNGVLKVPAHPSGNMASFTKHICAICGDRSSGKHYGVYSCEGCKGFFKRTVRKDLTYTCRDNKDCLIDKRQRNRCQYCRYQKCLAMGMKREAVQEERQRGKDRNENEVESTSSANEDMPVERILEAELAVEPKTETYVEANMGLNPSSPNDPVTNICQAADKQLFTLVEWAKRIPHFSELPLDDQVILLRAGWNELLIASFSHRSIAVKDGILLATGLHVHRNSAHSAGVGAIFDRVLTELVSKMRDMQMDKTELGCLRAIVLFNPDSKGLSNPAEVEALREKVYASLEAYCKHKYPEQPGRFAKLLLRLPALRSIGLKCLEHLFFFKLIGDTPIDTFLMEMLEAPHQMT
Sequence (P37231 1-505 partner): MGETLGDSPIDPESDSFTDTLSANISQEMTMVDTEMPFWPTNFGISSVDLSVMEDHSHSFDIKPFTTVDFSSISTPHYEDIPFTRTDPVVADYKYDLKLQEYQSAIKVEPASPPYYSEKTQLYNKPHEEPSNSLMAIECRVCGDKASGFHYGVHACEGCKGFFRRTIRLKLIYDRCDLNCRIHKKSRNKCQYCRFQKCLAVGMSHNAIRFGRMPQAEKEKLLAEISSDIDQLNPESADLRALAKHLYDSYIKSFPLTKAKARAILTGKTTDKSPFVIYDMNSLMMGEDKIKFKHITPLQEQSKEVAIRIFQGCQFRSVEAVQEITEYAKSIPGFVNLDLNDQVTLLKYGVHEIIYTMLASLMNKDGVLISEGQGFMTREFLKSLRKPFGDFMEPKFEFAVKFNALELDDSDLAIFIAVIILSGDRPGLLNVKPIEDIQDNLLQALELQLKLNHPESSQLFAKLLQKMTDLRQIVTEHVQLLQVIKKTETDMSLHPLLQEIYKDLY
assay.explanation: PPARγ/RXRα heterodimer activation (transactivation) assay
Text: Nuclear hormone receptor (NHR) ligand dependent transcriptional transactivation assay. Heterodimer reporter assays are potentially more important selection criteria for synthetic agonistic NHR ligands as they embody a more natural situation. […]
Give measured EC50 for each item. Keep answers brief.
Field: numeric (nM). Do not append units.

Q: Quick check: EC50 on PPARγ/RXRα Heterodimer (Homo sapiens, UniProt P19793), item CC(/C=C/c1sccc1-c1ccc2c(c1)C(C)(C)CCC2(C)C)=C\C(=O)O [Compound 9] ?
Ans: 38

Q: EC50 of CCc1cc2c(cc1\C(C)=C/C=C/C(C)=C/C(=O)O)CCCC2C (racemic) [Compound 11] on PPARγ/RXRα Heterodimer (Homo sapiens, UniProt P19793)?
Ans: 10

Q: Hello, I am looking for reported EC50 with PPARγ/RXRα Heterodimer (Homo sapiens, UniProt P19793) for CC1=C(/C=C/C2=C(/C=C/C(C)=C/C(=O)O)CCCCC2)C(C)(C)CCC1 [Compound 1] . Could you help?
Ans: 70

Q: # query: EC50 | item CC1=C(/C=C/C2=C(/C=C/C(C)=C/C(=O)O)CCC2)C(C)(C)CCC1 [Compound 14] | system: PPARγ/RXRα Heterodimer (Homo sapiens, UniProt P19793)
Ans: 7
